target: ScSla1-D1-D2; experiment: SPOT peptide array binding signal intensity (averaged, normalized) (arbitrary units (background-subtracted, floor 0; scale differs between SH3 domains)); higher = stronger binding of the SH3 domain to the peptide
Quick list: SPOT peptide array binding signal intensity per entry.
// keep it numeric: no unit symbol after the value

// known answers, use as guide
binder	observed-result
NRLRKRLNLPSEISI	19.5
QTMRQAPKRPDADVA	690
LYEAMPPTLPHRDWK	46
LRIKRKPVQTFFEFI	220

State, in one line, measured SPOT peptide array binding signal intensity of LKHGWKPLRPIKLIS
50

State, in one line, measured SPOT peptide array binding signal intensity of SSSSSPPPLPTRRDH
51

State, in one line, measured SPOT peptide array binding signal intensity of ATKSASPTLPTRRSR
726
